test system: HCI16 (cells of a triple-negative basal-like breast cancer xenograft); assay: cell viability (% of vehicle); higher = less cytotoxic; details: 10 µM; 72 h;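 note: PDX cells carrying CMV promoter-driven luciferase, viability read as total photon flux per second by IVIS imaging following D-luciferin, vehicle control 0.1% DMSO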
MEASURE_NAME: cell viability
Answers are plain numbers.

Answered cases to consult:
{"MOLECULE": "C=CCNC(N)=S [Allylthiourea]", "cell viability": 107}
{"MOLECULE": "CN(C)C(CCOc1cccc2ccccc12)c1ccccc1.Cl (stereo not given) [Dapoxetine HCl]", "cell viability": 70}
{"MOLECULE": "CC[C@@]1(O)C(=O)OCc2c1cc1n(c2=O)Cc2cc3c(CN(C)C)c(O)ccc3nc2-1 [Topotecan]", "cell viability": 73}
{"MOLECULE": "COc1ccccc1OCC(O)CO (stereo not given) [Guaifensin]", "cell viability": 117}

INPUT: Answer with the recorded cell viability of CCCCCCNC(=O)n1cc(F)c(=O)[nH]c1=O [Carmofur] only.
OUTPUT: 108
